Tested on: calf thymus DNA
ASSAY_COMMENT: ethidium displacement assay, calf thymus DNA
Type: binding
RUN_CONDITIONS: ± 0.02 × 10^5 M^-1, pH 7.4
Mark y only when Association constant Kapp stays strictly below 500000 M⁻¹. Values equal to the cut-off are n.

Example entries begin here.
> print(dat)
                                 cpd.smiles  category.label
1  CN(C)CCNC(=O)c1nc(NC(=O)c2nc(NC(=O)CCCc3ccc(N(CCCl)CCCl)cc3)cn2C)cn1C               y
2  CN(C)CCNC(=O)c1nc(NC(=O)c2nc(NC(=O)c3nc(NCc4ccc(N(CCCl)CCCl)cc4)cn3C)cn2C)cn1C               y
3  CN(C)CCNC(=O)c1nc(NC(=O)c2nc(NC(=O)c3ccc(N(CCCl)CCCl)cc3)cn2C)cn1C               y
4  Cn1cc(NC(=O)c2cc(NC(=O)c3cc(NC=O)cn3C)cn2C)cc1C(=O)NCCC(=N)N               n
5  CN(C)CCNC(=O)c1nc(NC(=O)c2nc(NC(=O)c3nc(NC(=O)CCCc4ccc(N(CCCl)CCCl)cc4)cn3C)cn2C)cn1C               y

Incoming: Is it true that Association constant Kapp reported for CN(C)CCNC(=O)c1nc(NC(=O)c2nc(NC(=O)c3nc(NC(=O)c4ccc(N(CCCl)CCCl)cc4)cn3C)cn2C)cn1C is less than 500000 M⁻¹?
Outgoing: n

---

Tested on: HOP-18
ASSAY_COMMENT: NCI cytotoxicity screen (SRB)
Assay type: cell-based, human
RUN_CONDITIONS: subsequent test date
MEASURE: pIC50
pIC50 (log units): -log10 of the concentration in mol/L.

Incoming: Answer with the recorded pIC50 of CN(C)CCNC(=O)c1nc(NC(=O)c2nc(NC(=O)c3ccc(N(CCCl)CCCl)cc3)cn2C)cn1C only.
Outgoing: 4.99

---

# maps each entry to its IC50
Test system: OVCAR-4
ASSAY_COMMENT: NCI cytotoxicity screen (SRB)
Assay type: cell-based, human
RUN_CONDITIONS: 48 h; Ovarian Cancer OVCAR-4
Please make sure the unit comes right after the number.

> print(dat)
                                   compound  endpoint.value
1  CN(C)CCNC(=O)c1nc(NC(=O)c2nc(NC(=O)c3ccc(N(CCCl)CCCl)cc3)cn2C)cn1C [Compound 6]         34.2 µM

// next entry
Incoming: # return IC50 for CN(C)CCNC(=O)c1nc(NC(=O)c2nc(NC(=O)c3nc(NC(=O)c4ccc(N(CCCl)CCCl)cc4)cn3C)cn2C)cn1C [Compound 7] , test system: OVCAR-4
Outgoing: 0.61 µM

---

In this section, each of the compounds is paired with its reported IC50.
System: SR
ASSAY_COMMENT: NCI cytotoxicity screen (SRB)
Format: cell-based, human
RUN_CONDITIONS: 48 h; Leukemia SR
# output: bare number, implied unit µM

Incoming: Enter measured IC50, system SR, for the compound shown: CN(C)CCNC(=O)c1nc(NC(=O)c2nc(NC(=O)c3ccc(N(CCCl)CCCl)cc3)cn2C)cn1C
Outgoing: 10.4

Incoming: Check SR data and give IC50 for CN(C)CCNC(=O)c1nc(NC(=O)c2nc(NC(=O)c3nc(NC(=O)c4ccc(N(CCCl)CCCl)cc4)cn3C)cn2C)cn1C .
Outgoing: 0.91

---

Here the recorded Association constant Kapp is given for each entry.
TARGET_OF_ASSAY: poly(dGdC)
ASSAY_COMMENT: ethidium displacement assay, poly(dGdC)
Assay type: binding
RUN_CONDITIONS: poly(dGdC); ± 0.02 × 10^5 M^-1; pH 7.4
From the text: The ethidium displacement assay is based on the fact that ethidium binding to DNA causes a large (approximately 25 fold) florescence enhancement as a result of the hydrophobic environment surrounding the ethidium molecule. Displacement of ethidium results in decreased fluorescence, and thus binding constants of drugs to DNA can be estimated and compared by measuring the loss of fluorescence as a function of added drug. […]
Express your answer as a number followed by its unit.

> print(dat)
                                 cpd.smiles  endpoint.value
1  CN(C)CCNC(=O)c1nc(NC(=O)c2nc(NC(=O)c3nc(NCc4ccc(N(CCCl)CCCl)cc4)cn3C)cn2C)cn1C      339000 M⁻¹
2  CN(C)CCNC(=O)c1nc(NC(=O)c2nc(NC(=O)c3nc(NC(=O)CCCc4ccc(N(CCCl)CCCl)cc4)cn3C)cn2C)cn1C       16000 M⁻¹
3  CN(C)CCNC(=O)c1nc(NC(=O)c2nc(NC(=O)c3nc(NC(=O)c4ccc(N(CCCl)CCCl)cc4)cn3C)cn2C)cn1C      495000 M⁻¹
4  CN(C)CCNC(=O)c1nc(NC(=O)c2nc(NC(=O)CCCc3ccc(N(CCCl)CCCl)cc3)cn2C)cn1C       76000 M⁻¹
5  Cn1cc(NC(=O)c2cc(NC(=O)c3cc(NC=O)cn3C)cn2C)cc1C(=O)NCCC(=N)N      203000 M⁻¹

// below: Association constant Kapp requested for another molecule
Incoming: Report measured Association constant Kapp; entry is CN(C)CCNC(=O)c1nc(NC(=O)c2nc(NC(=O)c3ccc(N(CCCl)CCCl)cc3)cn2C)cn1C
Outgoing: 455000 M⁻¹

---

System: M19-MEL
ASSAY_COMMENT: NCI cytotoxicity screen (SRB)
Format: cell-based, human
RUN_CONDITIONS: 48 h; Melanoma M19-MEL
MEASURE: pIC50
The read-out pIC50 is expressed as -log10 of concentration in moles per litre.

Incoming: Answer with the recorded pIC50 of CN(C)CCNC(=O)c1nc(NC(=O)c2nc(NC(=O)c3ccc(N(CCCl)CCCl)cc3)cn2C)cn1C only.
Outgoing: 5.25

---

Tested on: A549/ATCC
ASSAY_COMMENT: NCI cytotoxicity screen (SRB)
Type: cell-based, human
RUN_CONDITIONS: A549/ATCC; subsequent test date
Listed below: IC50 values for each entry.
// return numeric value only (unit: µM, not printed)

> print(dat)
                                   molecule  units.label  endpoint.value
1  CN(C)CCNC(=O)c1nc(NC(=O)c2nc(NC(=O)c3ccc(N(CCCl)CCCl)cc3)cn2C)cn1C [Compound 6]           µM            38.4

Incoming: Identify IC50 associated with the molecule CN(C)CCNC(=O)c1nc(NC(=O)c2nc(NC(=O)c3nc(NC(=O)c4ccc(N(CCCl)CCCl)cc4)cn3C)cn2C)cn1C [Compound 7]
Outgoing: 4.12

---

Test system: NCI-H322M
ASSAY_COMMENT: NCI cytotoxicity screen (SRB)
Type: cell-based, human
RUN_CONDITIONS: 48 h; Non-Small Cell Lung Cancer NCI-H322M
MEASURE: pIC50
Scale note: pIC50 = -log10(concentration in M).

Below, each entry is followed by its recorded pIC50 result.
> print(dat)
                                 cpd.smiles  endpoint.value
1  CN(C)CCNC(=O)c1nc(NC(=O)c2nc(NC(=O)c3ccc(N(CCCl)CCCl)cc3)cn2C)cn1C            4.39
2  CN(C)CCNC(=O)c1nc(NC(=O)c2nc(NC(=O)c3nc(NC(=O)c4ccc(N(CCCl)CCCl)cc4)cn3C)cn2C)cn1C            5.62
3  CN(C)CCNC(=O)c1nc(NC(=O)c2nc(NC(=O)c3nc(NC(=O)CCCc4ccc(N(CCCl)CCCl)cc4)cn3C)cn2C)cn1C            4.62

// next entry
Incoming: Provide measured pIC50 value, entry: CN(C)CCNC(=O)c1nc(NC(=O)c2nc(NC(=O)CCCc3ccc(N(CCCl)CCCl)cc3)cn2C)cn1C
Outgoing: 4.11

---

System: SK-MEL-5
ASSAY_COMMENT: NCI cytotoxicity screen (SRB)
Format: cell-based, human
RUN_CONDITIONS: SK-MEL-5; subsequent test date
MEASURE: pIC50
Friendly reminder that pIC50 comes from taking -log10 of the concentration in mol/L.

Incoming: # return recorded pIC50 for input CN(C)CCNC(=O)c1nc(NC(=O)c2nc(NC(=O)c3ccc(N(CCCl)CCCl)cc3)cn2C)cn1C
Outgoing: 4.28

---

Tested on: Molt-4
ASSAY_COMMENT: NCI cytotoxicity screen (SRB)
Assay type: cell-based, human
RUN_CONDITIONS: 48 h; Leukemia Molt-4
Each entry below carries its recorded IC50.
Just the number in µM, nothing appended.

> print(dat)
                                   molecule  measure  endpoint.value
1  CN(C)CCNC(=O)c1nc(NC(=O)c2nc(NC(=O)CCCc3ccc(N(CCCl)CCCl)cc3)cn2C)cn1C [Compound 9]     IC50            71.3

Incoming: # return recorded IC50 for input CN(C)CCNC(=O)c1nc(NC(=O)c2nc(NC(=O)c3nc(NC(=O)c4ccc(N(CCCl)CCCl)cc4)cn3C)cn2C)cn1C [Compound 7]
Outgoing: 0.98

Incoming: For the molecule CN(C)CCNC(=O)c1nc(NC(=O)c2nc(NC(=O)c3nc(NC(=O)CCCc4ccc(N(CCCl)CCCl)cc4)cn3C)cn2C)cn1C [Compound 10] , give its reported IC50.
Outgoing: 3.19

Incoming: Report measured IC50; entry is CN(C)CCNC(=O)c1nc(NC(=O)c2nc(NC(=O)c3ccc(N(CCCl)CCCl)cc3)cn2C)cn1C [Compound 6]
Outgoing: 18.1
